tested on: NCI-H23; assay: Antiproliferative activity against human NCI-H23 cells; type: functional
Response field label: string, one of yes (1) (GI50 strictly below 3000 nM) or no (0).

>>> print(df.to_string())
                           substance_smiles  study_system  class_assignment
0  O=C(CCC1=CCN(CCc2ccc(C(F)(F)F)cc2)C1=O)NO       NCI-H23           yes (1)
1  O=C(CCC1=CCN(Cc2cccc(C(F)(F)F)c2)C1=O)NO       NCI-H23           yes (1)
2         COc1ccccc1CCN1CC=C(CCC(=O)NO)C1=O       NCI-H23            no (0)
3        COc1ccc(CN2CC=C(CCC(=O)NO)C2=O)cc1       NCI-H23           yes (1)

**Q:** Problem: For the molecule O=C(CCC1=CCN(Cc2ccccc2)C1=O)NO , is GI50 under 3000 nM?
**A:** no (0)

**Q:** Strictly below 3000 nM in GI50? COc1ccccc1CCCN1CC=C(CCC(=O)NO)C1=O
**A:** no (0)

###

test: Chemical stability in buffer assessed as compound remaining at 1 uM after 30 mins; type: physicochemical; settings: read-out: Stability
measured.metric: remaining at 0.5 h, 1 µM
Answers without a unit are incomplete; give the number and then its unit.

Answered examples (3):
In [3]: df
Out[3]:
                           substance_smiles  measurement
0  O=C1CC2(CCCC2)CC(=O)N1CCCCN1CCN(c2ncccn2)CC1         108%
1       COc1ccc(CCN2CC=C(CCC(=O)NO)C2=O)cc1         102%
2  O=C(CCC1=CCN(CCc2ccc(C(F)(F)F)cc2)C1=O)NO         102%

Would you kindly look at the next entry?
**Q:** remaining at 0.5 h, 1 µM lookup needed for O=C(CCC1=CCN(CCc2ccccc2)C1=O)NO , thanks.
**A:** 96.7%

###

system: PC-3; experiment: Antiproliferative activity against human PC3 cells; format: functional
measured.metric: GI50 (µM)
Give the value, in units of µM, as a plain number.

Solved cases (3 shown):
>>> print(df.to_string())
                     substance_smiles  measured_metric  measurement
0    COc1ccccc1CN1CC=C(CCC(=O)NO)C1=O             GI50         3.56
1   COc1ccccc1CCN1CC=C(CCC(=O)NO)C1=O             GI50         3.51
2  COc1ccccc1CCCN1CC=C(CCC(=O)NO)C1=O             GI50         3.51

**Q:** Please state recorded GI50 (tested on PC-3) of O=C(CCC1=CCN(Cc2cccc(C(F)(F)F)c2)C1=O)NO
**A:** 0.88

**Q:** Query the reported GI50 for PC-3; item: COc1cccc(CCN2CC=C(CCC(=O)NO)C2=O)c1
**A:** 2.59

**Q:** # returns recorded GI50 (system: PC-3) for O=C(CCC1=CCN(Cc2ccccc2)C1=O)NO
**A:** 4.43

**Q:** # value lookup — system PC-3, readout GI50, item O=C(CCC1=CCN(CCc2cccc(C(F)(F)F)c2)C1=O)NO
**A:** 2.77

**Q:** // map COc1cccc(CCCN2CC=C(CCC(=O)NO)C2=O)c1 to recorded GI50 (system: PC-3)
**A:** 2.59
